Tested on: Escherichia coli
Experiment: Antibacterial activity against extended-spectrum beta-lactamase producing Escherichia coli isolate 14-11 after 18 hrs by agar dilution method
Format: functional
Conditions: isolate 14-11, 18 h
Bridge positions count the residues as written; N and C are the ends. Square brackets hold non-standard residues; d marks the D form. Peptide text beside a SMILES is read from it. * marks the point of attachment. Heptanoyl(6-Me) = CC(C)CCCCC(=O)*; X1 = CC[C@H](C)CCCCC(=O)*; Heptanoyl = CCCCCCC(=O)*; Dab = NCC[C@H](N)C(=O)O; Nva = CCC[C@H](N)C(=O)O
metric: MIC (µg/mL)
Give the number; µg/mL is assumed, so skip it.

Here is how some compounds turned out for MIC.
compound	measured result
CCCCCCC(=O)N[C@@H](CCN)C(=O)N[C@H](C(=O)N[C@@H](CCN)C(=O)N[C@H]1CCNC(=O)[C@H]([C@@H](C)O)NC(=O)[C@H](CCN)NC(=O)[C@H](CCN)NC(=O)[C@H](CC(C)C)NC(=O)[C@@H](CC(C)C)NC(=O)[C@H](CCN)NC1=O)[C@@H](C)O (Heptanoyl-[Dab]T[Dab][Dab][Dab][dL]L[Dab][Dab]T; lactam 4-C)	0.5
CC[C@H](C)CCCCC(=O)N[C@@H](CCN)C(=O)N[C@H](C(=O)N[C@@H](CCN)C(=O)N[C@H]1CCNC(=O)[C@H]([C@@H](C)O)NC(=O)[C@H](CCN)NC(=O)[C@H](CCN)NC(=O)[C@H]([C@@H](C)CC)NC(=O)[C@@H](CC(C)C)NC(=O)[C@H](CCN)NC1=O)[C@@H](C)O	0.5
CCC[C@@H]1NC(=O)[C@@H](CC(C)C)NC(=O)[C@H](CCN)NC(=O)[C@@H](NC(=O)[C@H](CCN)NC(=O)[C@@H](NC(=O)[C@H](CCN)NC(=O)CCCC[C@@H](C)CC)[C@@H](C)O)CCNC(=O)[C@H]([C@@H](C)O)NC(=O)[C@H](CCN)NC(=O)[C@H](CCN)NC1=O (X1-[Dab]T[Dab][Dab][Dab][dL][Nva][Dab][Dab]T; lactam 4-C)	1
CC(C)CCCCC(=O)N[C@@H](CCN)C(=O)N[C@H](C(=O)N[C@H](CO)C(=O)N[C@H]1CCNC(=O)[C@H]([C@@H](C)O)NC(=O)[C@H](CCN)NC(=O)[C@H](CCN)NC(=O)[C@H]([C@@H](C)O)NC(=O)[C@@H](CC(C)C)NC(=O)[C@H](CCN)NC1=O)[C@@H](C)O ({Heptanoyl(6-Me)}-[Dab]T[dS][Dab][Dab][dL]T[Dab][Dab]T; lactam 4-C)	0.12
CCCCCCC(=O)N[C@@H](CCN)C(=O)N[C@H](C(=O)N[C@@H](CCN)C(=O)N[C@H]1CCNC(=O)[C@H]([C@@H](C)O)NC(=O)[C@H](CCN)NC(=O)[C@H](CCN)NC(=O)[C@H](CC(C)C)NC(=O)[C@@H](Cc2ccccc2)NC(=O)[C@H](CCN)NC1=O)[C@@H](C)O [POLYMYXIN B4] (Heptanoyl-[Dab]T[Dab][Dab][Dab][dF]L[Dab][Dab]T; lactam 4-C)	0.5

Now consider the entry below.
Lookup: So what does the record say about MIC for CC(C)CCCCC(=O)N[C@@H](CCN)C(=O)N[C@H](C(=O)N[C@@H](CCN)C(=O)N[C@H]1CCNC(=O)[C@H]([C@@H](C)O)NC(=O)[C@H](CCN)NC(=O)[C@H](CCN)NC(=O)[C@H](C(C)C)NC(=O)[C@@H](CC(C)C)NC(=O)[C@H](CCN)NC1=O)[C@@H](C)O ({Heptanoyl(6-Me)}-[Dab]T[Dab][Dab][Dab][dL]V[Dab][Dab]T; lactam 4-C) ?
Found: 0.25
